# Assay notes: qHTS assay for identifying genotoxic compounds that show differential cytotoxicity against isogenic chicken DT40 cell lines with known DNA damage response pathways - wild type cell line (AID 743012); also: nearly all actives have a fitted effect of over 60% in size
# Assay context: DT40 wild type chicken cells viability, CellTiter-Glo, 40 h; series mostly up to 68.4 µM
# Description: U.S. Tox21 Program National Center for Advancing Translational Sciences [NCATS] NIH Chemical Genomics Center [NCGC] U.S. Environmental Protection Agency [EPA] National Institutes of Environmental Health Sciences [NIEHS] National Toxicology Program [NTP] U.S. Food and Drug Administration [FDA] Tox21 Assay Overview: DNA repair pathways play a critical role in cellular homeostasis by repairing DNA damage induced by endogenous processes and xenobiotics. […]
Results filed as inconclusive are left out. Calls of active or inactive are those of the source. Calls follow the shape of the dose curve; as a rule, active = well fitted cell-killing curve with a large enough effect in the repeat runs; inconclusive = weak or mixed curves, or effect the other way; inactive = no such curve, though single readings can be large or run the other way.
Outcome codes: active, inactive

In [3]: df
Out[3]:
                                    molecule  category_label
 0                O=C(O)c1cc[c]([Hg][Cl])cc1        inactive
 1                           O=c1ssc(Cl)c1Cl          active
 2  CC(Cc1ccc(C(C)(C)C)cc1)CN1C[C@@H](C)O[C@@H](C)C1 (stereo partly specified)          active
 3                           O=C(CCl)C(Cl)Cl          active
 4                         O=C(CCl)Nc1ccccc1          active
 5                        BrC(Br)C(Br)(Br)Br        inactive
 6  CCOCn1c(-c2ccc(Cl)cc2)c(C#N)c(Br)c1C(F)(F)F          active
 7                               N#CCCSCCC#N        inactive
 8     CCCOCC(=Nc1ccc(Cl)cc1C(F)(F)F)n1ccnc1          active
 9  C=CC(=O)OCC(COC(=O)C=C)(COC(=O)C=C)COC(=O)C=C          active
10  COC12CC[C@@]3(C[C@@H]1C(C)(O)C(C)(C)C)[C@H]1Cc4ccc(O)c5c4[C@@]3(CCN1CC1CC1)[C@H]2O5 (stereo partly specified)          active
11                                       CCN        inactive
12                CN(C)CCc1c[nH]c2cccc(O)c12          active
13  CC(C)CC(C)Nc1ccc(Nc2ccccc2)cc1 (stereo unspecified)          active
14                        [Cl][Sb]([Cl])[Cl]        inactive
15                CN(C)c1ccc(N=Nc2ccccc2)cc1        inactive
16              S=C(SSC(=S)N1CCCCC1)N1CCCCC1          active
17  Clc1ccc(CSC(Cn2ccnc2)c2ccc(Cl)cc2Cl)cc1 (stereo unspecified)          active
18  Clc1ccc(CCC(Cn2ccnc2)Sc2c(Cl)cccc2Cl)cc1 (stereo unspecified)          active
19                            CCCCCCCCCCCCBr          active
20      CN(C)S(=O)(=O)N(SC(F)(Cl)Cl)c1ccccc1          active
